assay: yeast growth modulation, basal conditions, primary screen, YJM789 clinical isolate, OD600, 24 h (AID 1089);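 further: growth of clinical yeast isolate S. cerevisiae YJM 789 seeded 1000 cells per well; test concentration not given here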; conditions: S. cerevisiae YJM789 growth, higher = more signal, called active from +8 up or from −8 down
Can you tell me z-score for the items I'm about to list?
No unit in the answer, please; the number alone is enough.

Query string: Dear colleague, I am looking for the recorded z-score of the following compound: CCCNC(=O)[C@@]1(C)c2ccccc2C(=O)N(Cc2ccccc2)[C@H]1c1ccc(CO)cc1
Result string: -0.864

Query string: Item COCC(=C=CC[C@@H](O)c1cccc(OCCO)c1)CCO has what recorded z-score?
Result string: 0.0995

Query string: Can you share its z-score? I mean this compound: NC(=O)[C@H]1[C@@H]2C(=O)O[C@@H](c3ccccc3)[C@@H](c3ccccc3)N2[C@@H](c2ccc(O)cc2)[C@]12C(=O)Nc1ccccc12
Result string: 0.446

Query string: What value of measured z-score is listed for CO[C@H]1O[C@H](CO)[C@@H](OC(=O)Nc2cccc(F)c2)[C@H](OC(=O)Nc2ccccc2-c2ccccc2)[C@H]1OC(=O)Nc1ccccc1-c1ccccc1 ?
Result string: -0.455

Query string: Request the reported z-score associated with CCOC(=O)C1=C[C@@H](C(C)(C)C)N(S(=O)(=O)c2ccc(C)cc2)[C@H]1c1ccccc1
Result string: 0.826

Query string: Fill in: z-score of COc1ccc(C(O)C2C=CC3C(=O)N(c4ccccc4)C(=O)C3N2Nc2ccccc2)cc1 (stereo unspecified) is ___
Result string: 0.219

Query string: Suppose we examine the compound CCOC(=O)C[C@H]1[C@H](OC(=O)c2ccc(-c3ccccc3)cc2)[C@@H](NC(=O)Cc2ccc(OC)cc2)c2cc(OCCCO)ccc2N1C(=O)Cc1ccc(OC)cc1 ; what z-score value has been reported?
Result string: 1.09

Query string: Entry COc1ccc(CCNC(=O)[C@@]2(Cc3ccccc3I)c3ccccc3C(=O)N(Cc3ccccc3Cl)[C@H]2c2ccc(CO)cc2)cc1 : reported z-score = ?
Result string: -0.372

Query string: Look up z-score: Cc1ccc(S[C@]2(C(=O)NC(C)C)CC(=O)N(C(C)C)[C@@H]2c2ccc(CO)cc2I)cc1
Result string: -0.466

Query string: // lookup z-score for CN(C)CCCCNC(=O)[C@H]1C[C@H]2C(=O)N[C@@H](CCCC[N+](C)(C)C)C(=O)N2[C@H]1c1ccc(O)cc1
Result string: -0.838

Query string: Tell me the measured z-score of CCCCCCCCCCC(O)C1C=CC2C(=O)N(C)C(=O)C2N1Nc1cc(OC)c(OC)c(OC)c1 (stereo unspecified) , please.
Result string: 0.692

Query string: Requested read-out: z-score. Entry: Cc1c(NC(=O)/C(C#N)=C/c2ccccc2Cl)c(=O)n(-c2ccccc2)n1C
Result string: -1.06

Query string: Using the record for O=C1N[C@@H](Cc2ccccc2)C(=O)N2[C@@H]1C[C@@H](C(=O)O)[C@H]2c1ccc(O)cc1 , report its z-score.
Result string: -0.0447

Query string: What measured z-score goes with COCC1C2CC[C@H]3C(OCc4ccc(OC)cc4)OC[C@]4(C)[C@H]3C2=C(CN4C(=O)OC(C)(C)C)[C@H](C)C1COC (stereo partly specified) ?
Result string: -1.23

Query string: Give its z-score value. Item: C=C(C)[C@@H]1CC=C(C(O)C2C=CC3C(=O)N(c4ccccc4)C(=O)C3N2Nc2ccc(C#N)cc2)CC1 (stereo partly specified)
Result string: 0.188

Query string: Requested field: z-score. Item: CN1C(=O)C2C(C1=O)C1C=C(CCCO)C2C(c2cccs2)N1Cc1cc2c(cc1Br)OCO2 (stereo unspecified)
Result string: -0.653
